Where these numbers come from: patent US20190127480A1

- target.entity: T1, human PSMA on PSMA-expressing cells (human, UniProt Q04609 1-750)
- T1 construct: Cell line is named under assay or readout in each row; also called B16F10.9/hPSMA; B16F10.9/PSMA
- assay.protocol: FACS on B16F10.9/PSMA cells
recorded.endpoint: EC50 (nM)
Your answer should be a plain number; it is taken to be in nM.

Worked examples, 3 binders total:
(Q) Name the recorded EC50 for BSPSMA/CD3-900 (bispecific antibody, IgG4, V domains shown, modified (chimeric) IgG4 Fc domain; also called PSMA-VH-11810 x CD3-VH-G9) VH 1: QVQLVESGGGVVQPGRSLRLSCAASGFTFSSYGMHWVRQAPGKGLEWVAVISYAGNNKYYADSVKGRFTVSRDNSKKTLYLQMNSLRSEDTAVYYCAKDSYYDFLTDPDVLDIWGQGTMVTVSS VH 2: EVQLVESGGGLVQPGRSLRLSCAASGFTFDDYSMHWVRQAPGKGLEWVSGISWNSGSKGYADSVKGRFTISRDNAKNSLYLQMNSLRAEDTALYYCAKDGSGYGKFYHYGLDVWGQGTTVTVSS VL: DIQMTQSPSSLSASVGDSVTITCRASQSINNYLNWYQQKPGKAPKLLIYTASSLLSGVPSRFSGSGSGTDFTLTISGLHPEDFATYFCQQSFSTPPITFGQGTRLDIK .
(A) 1.43

(Q) Can you check BSPSMA/CD3-2100 (bispecific antibody, IgG4, V domains shown, modified (chimeric) IgG4 Fc domain; also called PSMA-VH-11810 x CD3-VH-G21) VH 1: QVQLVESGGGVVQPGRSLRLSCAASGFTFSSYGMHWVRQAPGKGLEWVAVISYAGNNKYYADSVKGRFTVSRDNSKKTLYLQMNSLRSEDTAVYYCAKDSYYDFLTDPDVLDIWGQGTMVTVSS VH 2: EVQLVESGGGLVQPGRSLRLSCAASGFTFDDYSMHWVRQAPGKGLEWVSGISWNSGSKGYADSVKGRFTISRDNAKNSLYLQMNSLRAEDTALYYCAKDGSGYGKFYYYGMDVWGQGTTVTVSS VL: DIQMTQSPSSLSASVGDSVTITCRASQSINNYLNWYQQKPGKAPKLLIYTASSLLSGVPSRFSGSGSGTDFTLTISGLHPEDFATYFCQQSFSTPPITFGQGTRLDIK next?
(A) 1.14

(Q) Can you check BSPSMA/CD3-1700 (bispecific antibody, IgG4, V domains shown, modified (chimeric) IgG4 Fc domain; also called PSMA-VH-11810 x CD3-VH-G17) VH 1: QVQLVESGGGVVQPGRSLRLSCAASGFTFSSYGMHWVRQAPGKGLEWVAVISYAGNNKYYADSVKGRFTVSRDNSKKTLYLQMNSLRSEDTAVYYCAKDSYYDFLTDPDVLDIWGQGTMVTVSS VH 2: EVQLVESGGGLVQPGRSLRLSCAASGFTFDDYSMHWVRQAPGKGLEWVSGISWNSGSKGYADSVKGRFTISRDNAKNSLYLQMNSLRAEDTALYYCAKYGSGYGKFYYYGMDVWGQGTTVTVSS VL: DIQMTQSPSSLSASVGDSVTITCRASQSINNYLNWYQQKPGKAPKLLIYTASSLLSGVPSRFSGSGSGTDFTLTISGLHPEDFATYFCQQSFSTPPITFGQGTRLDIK next?
(A) 1.34

Others:
(Q) Name the recorded EC50 for BSPSMA/CD3-004 (bispecific antibody, IgG4, V domains shown, modified (chimeric) IgG4 Fc domain; also called PSMA-VH-11810 x CD3-VH-G5) VH 1: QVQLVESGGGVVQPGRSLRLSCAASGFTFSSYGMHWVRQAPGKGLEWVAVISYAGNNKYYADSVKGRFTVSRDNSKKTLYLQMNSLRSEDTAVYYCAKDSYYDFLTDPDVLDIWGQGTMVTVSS VH 2: EVQLVESGGGLVQPGRSLRLSCAASGFTFDDYSMHWVRQAPGKGLEWVSGISWNSGSIGYADSVKGRFTISRDNAKNSLYLQMNSLRAEDTALYYCAKDGSGYGKFYYYGMDVWGQGTTVTVSS VL: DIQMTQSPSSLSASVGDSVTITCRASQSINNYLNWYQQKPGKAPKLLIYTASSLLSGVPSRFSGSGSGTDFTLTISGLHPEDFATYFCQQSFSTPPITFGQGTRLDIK .
(A) 1.31
